target: T1, hNPR1-mFc:hANP or hNPR1-hFc:hANP complex (human, UniProt P01160 124-151); test: SPR, mAb captured, 37C
T1 construct: also called human NPR1 complexed to ANP
Lab note: cut-off is 60000 M⁻¹ s⁻¹. Strictly less in kon is 1. Exactly 60000 M⁻¹ s⁻¹ or more is 0.

binder	class assignment
mAb25508 (antibody, human IgG4, V domains shown) VH: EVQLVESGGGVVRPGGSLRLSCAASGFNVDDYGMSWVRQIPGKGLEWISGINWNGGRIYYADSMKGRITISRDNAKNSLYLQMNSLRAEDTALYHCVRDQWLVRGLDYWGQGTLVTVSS VL: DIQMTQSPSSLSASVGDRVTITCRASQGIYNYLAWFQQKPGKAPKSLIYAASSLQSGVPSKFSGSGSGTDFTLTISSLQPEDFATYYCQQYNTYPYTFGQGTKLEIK	0
mAb25479 (antibody, human IgG4, V domains shown) VH: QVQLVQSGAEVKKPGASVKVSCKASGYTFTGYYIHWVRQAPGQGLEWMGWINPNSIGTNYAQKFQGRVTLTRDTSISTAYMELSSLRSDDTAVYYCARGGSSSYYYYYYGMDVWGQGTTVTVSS VL: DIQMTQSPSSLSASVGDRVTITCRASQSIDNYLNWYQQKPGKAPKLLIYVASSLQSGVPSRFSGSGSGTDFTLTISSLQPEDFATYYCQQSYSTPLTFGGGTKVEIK	1
mAb22033 (antibody, human IgG4, V domains shown) VH: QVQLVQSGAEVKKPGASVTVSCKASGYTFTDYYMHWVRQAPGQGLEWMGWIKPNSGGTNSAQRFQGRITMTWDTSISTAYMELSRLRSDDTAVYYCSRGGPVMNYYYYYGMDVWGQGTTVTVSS VL: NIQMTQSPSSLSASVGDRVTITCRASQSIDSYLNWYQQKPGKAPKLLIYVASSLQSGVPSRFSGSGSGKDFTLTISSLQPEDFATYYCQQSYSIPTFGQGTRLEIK	1
mAb22809 (antibody, human IgG4, V domains shown) VH: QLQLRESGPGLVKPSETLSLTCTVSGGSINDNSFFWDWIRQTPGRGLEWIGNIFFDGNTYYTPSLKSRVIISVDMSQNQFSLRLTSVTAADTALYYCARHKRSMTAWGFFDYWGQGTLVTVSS VL: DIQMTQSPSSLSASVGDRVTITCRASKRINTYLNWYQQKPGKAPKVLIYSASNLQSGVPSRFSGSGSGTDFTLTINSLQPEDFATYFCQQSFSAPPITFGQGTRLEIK	1
mAb22810 (antibody, human IgG4, V domains shown) VH: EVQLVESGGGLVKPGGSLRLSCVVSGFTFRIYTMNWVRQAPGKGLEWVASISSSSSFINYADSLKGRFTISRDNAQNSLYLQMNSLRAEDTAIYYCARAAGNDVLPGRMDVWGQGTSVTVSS VL: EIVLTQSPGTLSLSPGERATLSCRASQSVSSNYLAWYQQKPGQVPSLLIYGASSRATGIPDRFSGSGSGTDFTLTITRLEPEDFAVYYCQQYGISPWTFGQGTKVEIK	1
mAb25491 (antibody, human IgG4, V domains shown) VH: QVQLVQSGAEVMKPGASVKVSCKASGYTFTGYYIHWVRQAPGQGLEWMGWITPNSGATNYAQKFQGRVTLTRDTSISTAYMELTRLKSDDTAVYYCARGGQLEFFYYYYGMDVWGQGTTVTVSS VL: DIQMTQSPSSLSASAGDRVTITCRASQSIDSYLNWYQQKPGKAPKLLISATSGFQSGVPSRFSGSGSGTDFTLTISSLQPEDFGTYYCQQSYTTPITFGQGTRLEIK	1
mAb22035 (antibody, human IgG4, V domains shown) VH: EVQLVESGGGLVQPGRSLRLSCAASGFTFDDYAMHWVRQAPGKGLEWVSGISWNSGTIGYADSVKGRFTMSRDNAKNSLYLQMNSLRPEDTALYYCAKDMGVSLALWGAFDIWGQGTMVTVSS VL: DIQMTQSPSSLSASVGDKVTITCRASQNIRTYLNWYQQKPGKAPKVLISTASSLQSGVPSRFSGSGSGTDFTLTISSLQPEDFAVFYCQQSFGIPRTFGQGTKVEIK	0
